Provide the recorded EC50 for the entries that follow.
# system: human GLP-1R (Homo sapiens, UniProt P43220)
# Construct: expressed in transfected cells; host or cells: HEK293
# Sequence (P43220 24-463): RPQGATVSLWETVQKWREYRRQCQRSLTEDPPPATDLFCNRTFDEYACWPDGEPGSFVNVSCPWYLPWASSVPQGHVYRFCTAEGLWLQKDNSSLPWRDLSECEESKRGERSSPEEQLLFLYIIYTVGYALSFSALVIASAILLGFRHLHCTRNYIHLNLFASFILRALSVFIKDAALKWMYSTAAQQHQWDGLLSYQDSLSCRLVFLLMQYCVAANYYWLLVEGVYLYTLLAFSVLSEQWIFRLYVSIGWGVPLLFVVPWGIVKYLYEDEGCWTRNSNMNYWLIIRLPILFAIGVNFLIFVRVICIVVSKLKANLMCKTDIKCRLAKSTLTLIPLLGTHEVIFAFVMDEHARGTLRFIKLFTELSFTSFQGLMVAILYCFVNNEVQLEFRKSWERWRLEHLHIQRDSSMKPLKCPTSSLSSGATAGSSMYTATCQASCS
# test.description: cAMP formation in HEK293 cells expressing human GLP-1R
# Format: cell-based
# condition.label: 15 min at 37° C.

Provide one value: measured EC50 of H-HSQGTFTSDYSRYLDSRRAKDFVWLLNT-NH2 [Compound 252] 0.5 nM

Consider the substance H-HSQGTFTSDYSRYLDSRRAQDFVWLLNK-NH2 [Compound 254] and give its recorded EC50. 0.2 nM

Output EC50 of H-HSQGTFTSDYSKYLDKRRAEDFVWLMNT-NH2 [Compound 256] 0.2 nM

Name the recorded EC50 of the item H-HSQGTFTSDYSKYLDSRHAQDFVWLMNT-NH2 [Compound 244] in your answer. 0.5 nM

Specify EC50 for H-HSQGTFTSDYSKYLDSRYAQDFVWLMNT-NH2 [Compound 247] and stop. 0.3 nM
